For each of the compounds below, state its Population Membrane Permeable-Phenotype (%).
test system: U2OS; assay: Multiplex assay against U2OS; format: toxicity, cell-based; settings: human, 48 h, 1 µM, compound concentration 1 uM, replicate 2
Lab book: enter the figure in %, no units written.

Note to self: Population Membrane Permeable-Phenotype (%) of CN1C2CCC1CC(OC(c1ccc(F)cc1)c1ccc(F)cc1)C2.Cl (stereo not drawn) with U2OS was 5

Entry COc1cc(N2CCN(C)CC2)ccc1Nc1ncc2c(n1)N(C)c1ccccc1C(=O)N2C : Population Membrane Permeable-Phenotype (%) on U2OS = 9

For the compound O=C(Cc1ccc(-c2ccc(OCCN3CCOCC3)cc2)cn1)NCc1ccccc1 [TIRBANIBULIN] , the measured Population Membrane Permeable-Phenotype (%) on U2OS was 29

Given the compound Cl.Oc1ccc2c3c1O[C@H]1c4[nH]c5c(c4C[C@@]4(O)[C@@H](C2)N(CC2CC2)CC[C@]314)C[C@@]1(O)[C@H]2Cc3ccc(O)c4c3[C@@]1(CCN2CC1CC1)[C@H]5O4 and test system U2OS, the measured Population Membrane Permeable-Phenotype (%) is 9

Entry Cc1cn(-c2cc(NC(=O)c3ccc(C)c(Nc4nccc(-c5cccnc5)n4)c3)cc(C(F)(F)F)c2)cn1 [NILOTINIB] under U2OS had Population Membrane Permeable-Phenotype (%) of 6

Measured Population Membrane Permeable-Phenotype (%) (U2OS), entry S=C(NCCCc1c[nH]cn1)NCCCN(Cc1ccc(Cl)c(Cl)c1)c1ccc(Br)cn1 : 5

// Population Membrane Permeable-Phenotype (%) (U2OS) for CCn1c(=O)c(-c2ccc(-c3cncs3)cc2Cl)cc2cnc(Nc3ccc(N4CCN(C)CC4)cc3)nc21 = 7

Note to self: Population Membrane Permeable-Phenotype (%) of CN(C)C(=O)C(CCN1CCC(O)(c2ccc(Cl)cc2)CC1)(c1ccccc1)c1ccccc1.Cl [LOPERAMIDE HYDROCHLORIDE] with U2OS was 8

Reading of Population Membrane Permeable-Phenotype (%) for CCCS(=O)(=O)c1nc(NC2CC2)cc(-c2ccc3c(ccn3C3CC(C)(C)NC(C)(C)C3)c2)n1 with U2OS: 24

Bench note, U2OS: O=C1N/C(=N/c2ccccc2F)S/C1=C\c1ccc(C(=O)O)cc1 , Population Membrane Permeable-Phenotype (%) reads 7

Entry CN1CCC(=C2c3ccccc3CC(=O)c3sccc32)CC1.O=C(O)/C=C/C(=O)O [KETOTIFEN FUMARATE] ; assay system U2OS; Population Membrane Permeable-Phenotype (%) recorded at 4

Test item O=C(Nc1ccc(Cl)cc1)Nc1cccc(-c2cccc(N3CCCC3)n2)c1 ; U2OS; reported Population Membrane Permeable-Phenotype (%) was 4

Query Cc1cc(C)c(S(=O)(=O)N(Cc2ccc(-c3cccc(S(C)(=O)=O)c3)cc2)Cc2ccc(C(F)(F)F)o2)c(C)c1 on U2OS; Population Membrane Permeable-Phenotype (%) returned: 6

Noted Population Membrane Permeable-Phenotype (%) for CCN1CCN(Cc2ccc(Nc3ncc(F)c(-c4cc(F)c5nc(C)n(C(C)C)c5c4)n3)nc2)CC1.CS(=O)(=O)O , tested on U2OS: 31

Sample O=C1NC(=O)C(c2cnc3ccccn23)=C1c1cn2c3c(cc(F)cc13)CN(C(=O)N1CCCCC1)CC2 [LY-2090314] , system: U2OS. Its Population Membrane Permeable-Phenotype (%) is 11

Here CCOC(=O)c1c(C)[nH]c2ccc3c(c12)CN1CCc2cc(OC)ccc2C1O3 (stereo not drawn) was tested on U2OS, and its Population Membrane Permeable-Phenotype (%) came to 9

CCCn1c(=O)c2[nH]c(-c3cnn(Cc4cccc(C(F)(F)F)c4)c3)nc2n(CC)c1=O [GS 6201] on U2OS gives Population Membrane Permeable-Phenotype (%) = 1

Query O=C(Nc1ccc(-c2ccnc(Nc3ccc(N4CCOCC4)cc3)n2)cc1)[C@@H]1CCCN1 on U2OS; Population Membrane Permeable-Phenotype (%) returned: 5
